Could you please report measured IC50 for the items listed next?
- TARGET OR TEST SYSTEM: hNET (Homo sapiens (Human))
- Sequence (P23975 whole entry): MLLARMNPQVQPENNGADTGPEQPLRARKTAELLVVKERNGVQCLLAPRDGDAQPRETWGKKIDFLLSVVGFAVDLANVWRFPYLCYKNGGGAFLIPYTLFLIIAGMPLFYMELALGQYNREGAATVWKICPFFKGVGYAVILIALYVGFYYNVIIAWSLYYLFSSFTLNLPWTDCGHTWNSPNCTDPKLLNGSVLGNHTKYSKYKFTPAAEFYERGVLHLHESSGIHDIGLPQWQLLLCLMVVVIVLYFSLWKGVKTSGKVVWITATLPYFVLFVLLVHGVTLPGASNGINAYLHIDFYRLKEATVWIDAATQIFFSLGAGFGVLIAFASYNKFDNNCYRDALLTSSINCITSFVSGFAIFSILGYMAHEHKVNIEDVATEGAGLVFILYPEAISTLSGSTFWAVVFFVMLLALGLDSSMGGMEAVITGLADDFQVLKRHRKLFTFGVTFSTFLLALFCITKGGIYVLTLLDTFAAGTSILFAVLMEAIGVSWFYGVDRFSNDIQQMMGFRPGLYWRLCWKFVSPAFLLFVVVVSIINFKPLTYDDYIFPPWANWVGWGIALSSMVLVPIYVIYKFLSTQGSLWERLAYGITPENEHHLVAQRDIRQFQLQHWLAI
- PROCEDURE SUMMARY: NET radioligand binding assay ([3H]nisoxetine, HEK-293 membranes)
- MEASUREMENT CONDITIONS: recombinant HEK-293 membranes, [3H]nisoxetine; read-out: Binding Affinity (IC50, nM) NET
Respond numerically; units are nM and should not be typed.

Quick check: IC50 of FC(F)Oc1ccc2c(c1)CN1CCC2(c2ccc(Cl)c(Cl)c2)CC1 [Example 46] ?
140

Likewise for FC(F)Oc1ccc(-c2ccc3c(c2)CN2CCC3(c3ccc(Cl)cc3)C2)nn1 (single isomer, unassigned) [6(+)] ?
1170

Likewise for FC(F)(F)c1ccc(Oc2ccc3c(c2)CN2CCC3(c3ccc(Cl)c(Cl)c3)CC2)nn1 [Example 45] ?
35.1

Likewise for COc1ccc2c(c1)CN1CCC2(c2ccc(Cl)cc2)C1 (racemic) [Example 1] ?
675

---

- System: DAT
- PROCEDURE SUMMARY: Ex vivo transporter occupancy assay, DAT ([125I]RTI-55, brain tissue)
- Format: in vivo
- MEASUREMENT CONDITIONS: dosed orally, 1 mg/kg, time until sacrifice 3 h
- Method: The general procedure for brain tissue collection and transporter occupancy assessment is briefly described as follows. Mice were sacrificed by asphyxiation in CO2, rats by decapitation and dogs by IV injection of euthanasia solution. […] The brain tissues were thawed and then homogenized using a polytron homogenizer (Kinematica). […] Protein content was measured for each sample using a Coomassie protein assay kit (Pierce). […]
// boundary case: % Occupancy DAT equal to 3% maps to not satisfied; strictly smaller maps to satisfied

Please check: % Occupancy DAT for `Fc1cc(C23CCN(CC2)Cc2cc(Oc4ccc(C(F)(F)F)nn4)ccc23)ccc1Cl` , strictly under 3% or not?
not satisfied

Likewise for Oc1ccc(-c2ccc3c(c2)CN2CCC3(c3ccc(Cl)cc3)C2)nn1 (single isomer, unassigned) [7(−)] ?
satisfied

Likewise for `Fc1ccc(C23CCN(CC2)Cc2cc(Oc4ccc(C(F)(F)F)nn4)ccc23)cc1Cl` ?
not satisfied

Likewise for `Clc1ccc(C23CCN(CC2)Cc2cc(-c4cnccn4)ccc23)cc1` ?
satisfied

Likewise for `FC(F)(F)c1ccc(Oc2ccc3c(c2)CN2CCC3(c3ccc(Cl)c(Cl)c3)CC2)nn1` ?
not satisfied

---

- TARGET OR TEST SYSTEM: hSERT (Homo sapiens (Human), UniProt P31645)
- Sequence (P31645 whole entry): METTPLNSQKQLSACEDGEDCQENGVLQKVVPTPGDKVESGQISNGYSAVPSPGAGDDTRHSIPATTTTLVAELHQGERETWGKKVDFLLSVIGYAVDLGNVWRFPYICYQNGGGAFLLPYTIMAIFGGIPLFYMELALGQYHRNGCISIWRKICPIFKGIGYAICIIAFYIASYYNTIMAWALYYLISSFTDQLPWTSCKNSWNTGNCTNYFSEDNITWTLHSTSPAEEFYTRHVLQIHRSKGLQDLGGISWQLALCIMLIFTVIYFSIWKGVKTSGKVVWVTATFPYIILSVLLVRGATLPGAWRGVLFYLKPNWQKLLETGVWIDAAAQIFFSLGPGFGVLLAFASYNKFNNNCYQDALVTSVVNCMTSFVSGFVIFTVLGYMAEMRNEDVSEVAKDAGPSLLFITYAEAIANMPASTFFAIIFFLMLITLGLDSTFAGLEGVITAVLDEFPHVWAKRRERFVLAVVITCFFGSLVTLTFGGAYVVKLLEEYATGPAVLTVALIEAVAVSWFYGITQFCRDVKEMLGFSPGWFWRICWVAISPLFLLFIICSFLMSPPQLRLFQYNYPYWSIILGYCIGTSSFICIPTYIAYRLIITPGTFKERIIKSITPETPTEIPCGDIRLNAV
- PROCEDURE SUMMARY: SERT radioligand binding assay ([125I]RTI-55, HEK-293 membranes)
Could you please report measured IC50 for the items listed next?
Respond numerically; units are nM and should not be typed.

Quick check: IC50 of N#Cc1cccc(-c2ccc3c(c2)CN2CCC3(c3ccc(Cl)cc3)CC2)c1 [Example 27] ?
3.4

Likewise for FC(F)(F)c1ccc(-c2ccc3c(c2)CN2CCC3(c3ccc(Cl)cc3)CC2)nn1 [Example 15] ?
2.6

---

- TARGET OR TEST SYSTEM: hDAT (Homo sapiens (Human))
- Sequence (Q01959 whole entry): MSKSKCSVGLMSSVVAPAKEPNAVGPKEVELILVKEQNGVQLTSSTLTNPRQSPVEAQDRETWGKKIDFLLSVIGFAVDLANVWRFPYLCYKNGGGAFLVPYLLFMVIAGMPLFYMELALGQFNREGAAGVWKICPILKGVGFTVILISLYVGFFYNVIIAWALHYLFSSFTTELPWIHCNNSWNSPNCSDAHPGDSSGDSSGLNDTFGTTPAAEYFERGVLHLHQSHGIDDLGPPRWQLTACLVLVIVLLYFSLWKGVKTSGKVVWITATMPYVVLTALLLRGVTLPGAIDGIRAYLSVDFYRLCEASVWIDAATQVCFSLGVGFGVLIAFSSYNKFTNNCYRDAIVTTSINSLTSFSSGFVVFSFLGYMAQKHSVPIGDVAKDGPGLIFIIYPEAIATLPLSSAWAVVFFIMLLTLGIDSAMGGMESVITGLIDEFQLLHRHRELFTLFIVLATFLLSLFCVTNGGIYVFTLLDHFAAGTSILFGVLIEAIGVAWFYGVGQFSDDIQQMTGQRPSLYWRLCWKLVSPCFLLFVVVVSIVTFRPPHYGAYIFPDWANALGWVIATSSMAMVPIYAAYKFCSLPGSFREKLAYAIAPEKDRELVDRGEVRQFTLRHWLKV
- PROCEDURE SUMMARY: DAT radioligand binding assay ([125I]RTI-55, HEK-293 membranes)
- MEASUREMENT CONDITIONS: recombinant HEK-293 membranes, [125I]RTI-55; read-out: Binding Affinity (IC50, nM) DAT
- Protocol: Recombinant HEK-293 cells expressing either the hSERT, hDAT, or hNET proteins were harvested from T-175 flasks as follows. The medium was removed from the flasks and the cells rinsed with HBSS without Ca and without Mg. The cells were then incubated for 5-10 minutes in 10 mM Tris-Cl, pH 7.5, 5 mM EDTA before the cells were lifted with a combination of pipetting and scraping, as needed. […]
// boundary case: IC50 equal to 40 nM maps to F; strictly smaller maps to T

Please check: IC50 for FC(F)Oc1ccc(-c2ccc3c(c2)CN2CCC3(c3ccc(Cl)cc3)C2)nn1 (single isomer, unassigned) [6(−)] , strictly under 40 nM or not?
F

Likewise for `CCS(=O)(=O)N1CCN(c2ccc3c(c2)CN2CCC3(c3ccc(Cl)cc3)CC2)CC1` ?
T

Likewise for FC(F)(F)c1nnc2ccc(-c3ccc4c(c3)CN3CCC4(c4ccc(Cl)cc4)C3)cn12 (racemic) ?
F

Likewise for `Cc1cc2ncnn2cc1-c1ccc2c(c1)CN1CCC2(c2ccc(Cl)c(Cl)c2)CC1` ?
F

Likewise for `FC(F)(F)c1ccc(Oc2ccc3c(c2)CN2CCC3(c3ccc(Cl)cc3)CC2)nn1` ?
T

Likewise for FC(F)(F)c1ccc(-c2ccc3c(c2)CN2CCC3(c3ccc(Cl)cc3)C2)nn1 (racemic) ?
F

Likewise for `Fc1ccc(C23CCN(CC2)Cc2cc(-c4ccc(C(F)(F)F)nn4)ccc23)cc1Cl` ?
F

Likewise for CS(=O)(=O)c1ccc(-c2ccc3c(c2)CN2CCC3(c3ccc(Cl)cc3)C2)cc1 (racemic) ?
F
